B1: Hairpin Ribozyme (parent)
chain: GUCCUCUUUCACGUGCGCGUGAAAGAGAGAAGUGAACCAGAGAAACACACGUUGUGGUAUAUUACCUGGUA

- Variants of: B1
- assayOverview: self-cleavage, relative activity (ratio to wild type); higher = more cleavage; co-transcriptional
I would appreciate it if you labelled entries met when self-cleavage is 0.2 or higher, otherwise not met.

[[record]]
residuecodes = "GACCUCUUUCACGUGCGCGUGAAAGAGAGAAGUGAACCAGAGAAACAAACGUUGUGGUAUAUUACCUGGUA [U2A C48A]"
classassignment = "not met"

[[record]]
residuecodes = "GUCCUCUUUCACGUGCGCGUGAAAGAGAGAAGUGAACAAGAGAAACUCACGUUGUGGUAUAUUACCUGGUA [C38A A47U]"
classassignment = "not met"

[[record]]
residuecodes = "GUCCUCUUUCACGUGCGCGUGAAAGAGAUAAGUGAACCAGAGAAACACACGUUGUAGUAUAUUACCUGGUA [G29U G56A]"
classassignment = "not met"

[[record]]
residuecodes = "GUCCUCUUUCACCUGCGCGUGAAAGAGAGAAGUGAACCAGAGAAACACACGUUGUGGUACAUUACCUGGUA [G13C U60C]"
classassignment = "met"

[[record]]
residuecodes = "GUCCUCUUUCACGUGCGCGUGAAAGAGAGAAGUGAACCAGAGAAACACAUGUCGUGGUAUAUUACCUGGUA [C50U U53C]"
classassignment = "met"

[[record]]
residuecodes = "GUCCUCUUUCACGUGCGCGUGAAAGAGAGAAGAGAACCAGAGAAACACACGUUGUGGUAUAUUACUUGGUA [U33A C66U]"
classassignment = "not met"

[[record]]
residuecodes = "GUCUUCUUUCACGUGCGCGUGAAAGAGAGAAGUGAACCAGAGAAACACACGUUGUGGUAUGUUACCUGGUA [C4U A61G]"
classassignment = "not met"

[[record]]
residuecodes = "GUCCUCUUUCACGUGCGCGUGAAAGAGAGAAGUGAACCAGAGAAACACAGGUAGUGGUAUAUUACCUGGUA [C50G U53A]"
classassignment = "met"

[[record]]
residuecodes = "GUCCUCUUUCACGUGCGAGCGAAAGAGAGAAGUGAACCAGAGAAACACACGUUGUGGUAUAUUACCUGGUA [C18A U20C]"
classassignment = "met"

[[record]]
residuecodes = "GUCCUCUUUCACGUACGCGUGAAAGAGAGAAGUGAACCAGAGAAACACACGUUCUGGUAUAUUACCUGGUA [G15A G54C]"
classassignment = "met"

[[record]]
residuecodes = "GUCCUCUUUCACGUGCGCGUGAAAGAGAGCAGUGAACCAGAGAAACACACGUUGUGGUAUAUUACGUGGUA [A30C C66G]"
classassignment = "met"

[[record]]
residuecodes = "GUCCUCUUUCACGUGCGCGUGAAAGAGAGAAGUGAACCAGAGAAUCACACGUUGUGGUAUCUUACCUGGUA [A45U A61C]"
classassignment = "not met"

[[record]]
residuecodes = "GUCCUCUUUCACGUGCGCGUGAAAGAGAGAAGUUAACCAGAGAAACACACGUUGUGGUCUAUUACCUGGUA [G34U A59C]"
classassignment = "met"

[[record]]
residuecodes = "GUCCUCUUUCACGUGCGCGUGAAAGAGAGAAGUGAACCAGAGAAACACACGCUGUGGUAUAUUACCUGGUA [U52C]"
classassignment = "met"

[[record]]
residuecodes = "GUCCUCUUUCACGUGCGCGUGAAAGAGAGAAGUGAACCAGAGAAACACAGGUUGUGGAAUAUUACCUGGUA [C50G U58A]"
classassignment = "not met"

[[record]]
residuecodes = "GUCCGCUUUCACGUGCGCGUGAAAGAGAGAAGUGAACCAGAGACACACACGUUGUGGUAUAUUACCUGGUA [U5G A44C]"
classassignment = "not met"

[[record]]
residuecodes = "GUCCUCUUUCACGUGCGCGAGAAAGAGAGAAGUGAACCAGAGAAACACACGUGGUGGUAUAUUACCUGGUA [U20A U53G]"
classassignment = "met"

[[record]]
residuecodes = "GUCCUCUUUCACGUGCUCGUGAAAGAGAGAAGUGAACCAGAGAAACACACGUUGUGGUAUACUACCUGGUA [G17U U62C]"
classassignment = "not met"

[[record]]
residuecodes = "GCCCUCUUUCACGUGCGCGUGGAAGAGAGAAGUGAACCAGAGAAACACACGUUGUGGUAUAUUACCUGGUA [U2C A22G]"
classassignment = "not met"

[[record]]
residuecodes = "GUCCUCUUUCACGUGCGCGUGAAAGAGAGAAGUGAACCAGAGAAACACACGUCGUGGUAUAUGACCUGGUA [U53C U63G]"
classassignment = "not met"

[[record]]
residuecodes = "GUCCUCUAUCACGUGCGAGUGAAAGAGAGAAGUGAACCAGAGAAACACACGUUGUGGUAUAUUACCUGGUA [U8A C18A]"
classassignment = "met"

[[record]]
residuecodes = "GUCCUCUUUCACGUGCGCGUGAAAGAGAGAAGUGAACCAGAGAAACACACUUUGUGGUAUAUGACCUGGUA [G51U U63G]"
classassignment = "not met"

[[record]]
residuecodes = "GUCCUCUUUCACGUGCGCGAGAAAGAGAGAAGUGAACCAGAGAAACACACAUUGUGGUAUAUUACCUGGUA [U20A G51A]"
classassignment = "met"

[[record]]
residuecodes = "GUCCUCUUUCACGUGCGCGUGAAAGAGAGAGGUGAACCAGAGAAACACGCGUUGUGGUAUAUUACCUGGUA [A31G A49G]"
classassignment = "met"

[[record]]
residuecodes = "GUCCUCUUUCACGUGCGCGUGAAAGAGAGAAGUGGACCAGACAAACACACGUUGUGGUAUAUUACCUGGUA [A35G G42C]"
classassignment = "met"

[[record]]
residuecodes = "GUCCUCUUUCACGUGCGCGUGAAAGAGAGAAGUGAACCAGAGAAACACACGUUGCGGUAAAUUACCUGGUA [U55C U60A]"
classassignment = "not met"

[[record]]
residuecodes = "GUCCUCUUUCACGUGCGCGUGAAAGAGAAAAGUGAACCAGAGAAACACACGUUGUGGUAUAAUACCUGGUA [G29A U62A]"
classassignment = "not met"

[[record]]
residuecodes = "GUCCUCUUUCACGUGCGCGUUAAAGAGAGAAGUGAACCAGAGAAACACACGUUGUGGUAUACUACCUGGUA [G21U U62C]"
classassignment = "met"

[[record]]
residuecodes = "GUCCUCUUUCACGUGCGAGUGAAAGAGAGAAGUGAACCAGAGAAACACACGUUGUGGGAUAUUACCUGGUA [C18A U58G]"
classassignment = "met"

[[record]]
residuecodes = "GUCCUCUUUCACGUGCGCGUGAAAGAGAGAAGUGAACCAGAGAAGCACACGUUAUGGUAUAUUACCUGGUA [A45G G54A]"
classassignment = "met"

[[record]]
residuecodes = "GUCCUCUUUCACGUGCGCGUAAAAAAGAGAAGUGAACCAGAGAAACACACGUUGUGGUAUAUUACCUGGUA [G21A G25A]"
classassignment = "met"

